Data credit: PubChem BioAssay (NCI)

# Test system: NCI-H460 lung
# procedure-text: NCI-60 one-dose screen, 48 h
# condition-notes: 10 µM unless noted
This is part of a sample that, as a whole, favours compounds with a hit. Of some 83,000 tested, about 20% had one in any assay. Activity calls are given as the source filed them. Rule for the calls: active = growth percent below 10; inactive = the rest.
Possible outcomes: active, inactive

compound: O=C(Nc1cc(Cl)cc(Cl)c1)Nc1ccc2oc(=O)ccc2c1
system-name: NCI-H460 lung
class-label: active
--
compound: COc1cc2c3c(n(CCCN4CCCC4)c(=O)c2cc1OC)-c1cc2c(cc1C3=O)OCO2
system-name: NCI-H460 lung
class-label: active
--
compound: CC1(C)CC[C@]2(C(=O)N3CCCNCC3)CC[C@]3(C)C(=CC[C@@H]4[C@@]5(C)CCC(=O)C(C)(C)[C@@H]5CC[C@]43C)[C@H]2C1
system-name: NCI-H460 lung
class-label: inactive
--
compound: Cn1c(SC(C(=O)Nc2ccc(F)cc2)c2ccccc2)nc2ccccc2c1=O (stereo not drawn)
system-name: NCI-H460 lung
class-label: inactive
--
compound: CCC(=O)Nc1ccc(-c2nc(-c3cccc(O)c3)c(-c3ccnc(Br)c3)[nH]2)cc1
system-name: NCI-H460 lung
class-label: inactive
--
compound: Nc1c(C(=O)c2ccccc2)sc2nc(-c3cnccn3)cc(-c3cccs3)c12
system-name: NCI-H460 lung
class-label: inactive
--
compound: CCc1ccc(NC(=O)N[C@@H](Cc2cc(F)cc(F)c2)C(=O)N[C@@H]2C(=O)N3CCC[C@H]3C(=O)N3CCO[C@H](C)[C@H]3C(=O)N[C@@H](CO)C(=O)N3C[C@H](C)C[C@H]3C(=O)O[C@H]2C)c(F)c1
system-name: NCI-H460 lung
class-label: inactive
--
compound: C#CCOc1ccc(C(Nc2ccc(OC)cc2)c2nnnn2C2CCCCC2)cc1 (stereo not drawn)
system-name: NCI-H460 lung
class-label: inactive
